- testSystem: His-CREBBP (1081-1197) bromodomain (Homo sapiens (Human), UniProt Q92793)
- Sequence (Q92793 1081-1197): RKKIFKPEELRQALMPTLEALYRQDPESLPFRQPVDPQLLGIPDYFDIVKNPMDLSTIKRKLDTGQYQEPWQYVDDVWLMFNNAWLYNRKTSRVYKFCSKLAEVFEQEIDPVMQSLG
- experimentSummary: AlphaScreen in-vitro binding assay for CREBBP
- experimentalParameters: biochemical
Strictly below 4 µM in IC50: Yes. Otherwise: No.

compound	testSystem	classification
Cc1cc(N2C(=O)c3nn(C4CNC4)c(C)c3C2c2ccc(Cl)cc2)cn2c(C)nnc12 (centres unmarked) [Example 152]	His-CREBBP (1081-1197) bromodomain (Homo sapiens (Human), UniProt Q92793)	Yes
COc1ncc(-n2nc(C)c3c2C(=O)N(c2cc(C)c(=O)n(C)c2)[C@@H]3c2ccc(Cl)cc2)c(OC)n1 [Example 100]	His-CREBBP (1081-1197) bromodomain (Homo sapiens (Human), UniProt Q92793)	No

Query: Consider the compound Cc1cc(N2C(=O)c3nn(C4CC4)c(C(F)(F)F)c3C2c2ccc(Cl)cc2)cn(C)c1=O (centres unmarked) [Example 43] . Is its IC50 strictly less than 4 µM?
Response: Yes

====

Kindly supply the reported pIC50 values for the records listed here.
- testSystem: His-CREBBP (1081-1197) bromodomain (Homo sapiens (Human), UniProt Q92793)
- experimentSummary: AlphaScreen in-vitro binding assay for CREBBP
- experimentalParameters: biochemical
- Method: AlphaScreen In-Vitro Binding Assay for CREBBP In order to assess bromodomain selectivity, we set up a binding assay using the bromodomain encoded by the CREBBP gene. […] Reactions were incubated at 30° C. for 35 minutes. […] After 60 minutes incubation at room temperature, plates were measured in a Perkin Elmer EnVision multilabel reader. IC50 values were determined from percent inhibition values at different compound concentrations by non-linear regression analysis. […]
pIC50: −log10 of the molar value.

Please review the following examples before continuing.
compound	pIC50
Cc1n[nH]c2c1C(c1ccc(Cl)cc1F)N(c1cc(C)c3nnc(C)n3c1)C2=O (centres unmarked) [Example 183]	< 4.62
Cc1nn(C2CC2)c2c1[C@H](c1ccc(Cl)cc1)N(c1cc(C)c(=O)n(C)c1)C2=O [Example 48]	< 5.29
CCn1nc(C)c2c1C(=O)N(c1cc(C)c3nnc(C)n3c1)C2c1ccc(F)cc1F (centres unmarked) [Example 181]	< 4.43
Cc1nn(C2CC2)c2c1C(c1ccc(Cl)cc1)N(c1cc(N(C)C(=O)OC(C)(C)C)c3nnc(C)n3n1)C2=O (centres unmarked) [Example 112]	< 4.43
CCOC(=O)N1CC(n2nc(C)c3c2C(=O)N(c2cc(C)c4nnc(C)n4c2)C3c2ccc(Cl)cc2)C1 (centres unmarked) [Example 156]	< 4.43

Each compound below has a reported value. Please supply its pIC50.
1. CNC(=O)n1nc(C)c2c1C(=O)N(c1cc(C)c(=O)n(C)c1)C2c1ccc(Cl)cc1 (centres unmarked) [Example 143]
2. Cc1nn(C2CC2)c2c1[C@@H](c1ccc(Cl)cc1)N(c1cc(C)c3nnc(C)n3n1)C2=O [Example 122]
3. Cc1nn(-c2ccnn2C)c2c1[C@H](c1ccc(Cl)cc1)N(c1cc(C)c3nnc(C)n3c1)C2=O [Example 124]

Response:
1: < 4.43; 2: < 4.43; 3: < 4.43
